B1: Caulobacter ParB omega fusion; a variant is named by its letters at X, in order, B8GW30 (parent)
chain: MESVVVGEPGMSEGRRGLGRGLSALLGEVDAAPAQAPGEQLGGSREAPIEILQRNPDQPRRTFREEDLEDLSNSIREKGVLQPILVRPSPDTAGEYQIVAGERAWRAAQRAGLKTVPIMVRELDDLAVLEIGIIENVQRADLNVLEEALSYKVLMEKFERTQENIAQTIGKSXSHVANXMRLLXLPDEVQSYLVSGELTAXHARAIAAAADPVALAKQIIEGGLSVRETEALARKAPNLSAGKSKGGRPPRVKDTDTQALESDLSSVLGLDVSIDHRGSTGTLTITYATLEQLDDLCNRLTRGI

Variants of: B1
Assay notes: one-hybrid fitness for binding parS DNA (scaled: cognate 1, non-cognate 0); higher = stronger binding
Measurement parameters: with parS DNA site
Over roughly 81,000 sequences, “one-hybrid fitness for binding parS DNA” has its median near -0.17; the highest 2% begin near 0.51. For the sample, the highest values were picked, then their nearest neighbours and some sequences at random.
Here, each record is paired with measured one-hybrid fitness for binding parS DNA data.

Example entries begin here.
[
  {
    "Mutation name": "SFLA",
    "one-hybrid fitness for binding parS DNA": "≤ 0.2"
  },
  {
    "Mutation name": "RFLA",
    "one-hybrid fitness for binding parS DNA": 0.533
  },
  {
    "Mutation name": "HTWN",
    "one-hybrid fitness for binding parS DNA": "≤ 0.2"
  }
]

Exam item: Report one-hybrid fitness for binding parS DNA for `DLLA` please.
Marked response: ≤ 0.2

Exam item: May I ask what one-hybrid fitness for binding parS DNA has been recorded for `FRES` ?
Marked response: ≤ 0.2

Exam item: Data request, read-out one-hybrid fitness for binding parS DNA, for `RDLA`
Marked response: ≤ 0.2
